Hello, the source for this data is patent US20110142868A1, in case you need it.

biological target: recombinant human PAD2 (human, UniProt Q9Y2J8 1-665); assay: cell-based or functional assay
Sequence (Q9Y2J8 whole entry): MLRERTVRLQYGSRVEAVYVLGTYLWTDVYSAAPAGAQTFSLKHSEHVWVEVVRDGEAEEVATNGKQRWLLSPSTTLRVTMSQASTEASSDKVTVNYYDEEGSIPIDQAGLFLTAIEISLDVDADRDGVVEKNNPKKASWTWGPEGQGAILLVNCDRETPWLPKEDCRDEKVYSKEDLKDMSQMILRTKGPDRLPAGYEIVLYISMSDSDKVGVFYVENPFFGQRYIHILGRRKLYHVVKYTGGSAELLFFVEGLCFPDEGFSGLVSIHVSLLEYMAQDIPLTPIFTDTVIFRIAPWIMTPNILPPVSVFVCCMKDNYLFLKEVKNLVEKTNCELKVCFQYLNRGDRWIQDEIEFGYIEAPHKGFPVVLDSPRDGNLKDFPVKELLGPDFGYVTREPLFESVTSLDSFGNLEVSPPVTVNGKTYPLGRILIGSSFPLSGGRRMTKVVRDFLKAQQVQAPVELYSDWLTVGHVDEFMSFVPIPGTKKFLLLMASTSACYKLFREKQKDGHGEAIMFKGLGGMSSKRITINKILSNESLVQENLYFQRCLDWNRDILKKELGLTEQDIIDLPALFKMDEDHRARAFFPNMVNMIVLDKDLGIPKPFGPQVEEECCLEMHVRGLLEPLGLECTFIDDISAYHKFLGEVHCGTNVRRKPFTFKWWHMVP
Square brackets hold non-standard residues; d marks the D form. * marks the point of attachment. Orn(fluoroacetimidoyl) = N=C(CF)NCCC[C@H](N)C(=O)O; 2Naphthylsulfonyl = O=S(=O)(c1ccc2ccccc2c1)*; AEEA = NCCOCCOCC(=O)O
Quantity Kind: Inhibition of PAD2: value at 10 µM inhibitor (0 µM: 74) (%)

| Binder | Experimental Result |
| --- | --- |
| 2Naphthylsulfonyl-KFD[Orn(fluoroacetimidoyl)]DFI[AEEA]-NH2 (SMILES CC[C@H](C)[C@H](NC(=O)[C@H](Cc1ccccc1)NC(=O)[C@H](CC(=O)O)NC(=O)[C@H](CCCNC(=N)CF)NC(=O)[C@H](CC(=O)O)NC(=O)[C@H](Cc1ccccc1)NC(=O)[C@H](CCCCN)NS(=O)(=O)c1ccc2ccccc2c1)C(=O)NCCOCCOCC(N)=O) [0837-27FA] | 24 |
| 2Naphthylsulfonyl-KFD[Orn(fluoroacetimidoyl)]DFI-NH2 [0837-29FA] | 16 |
| Ac-KFD[Orn(fluoroacetimidoyl)]DFI-NH2 (SMILES CC[C@H](C)[C@H](NC(=O)[C@H](Cc1ccccc1)NC(=O)[C@H](CC(=O)O)NC(=O)[C@H](CCCNC(=N)CF)NC(=O)[C@H](CC(=O)O)NC(=O)[C@H](Cc1ccccc1)NC(=O)[C@H](CCCCN)NC(C)=O)C(N)=O) [0743-58FA] | 39 |
| Ac-KFD[Orn(fluoroacetimidoyl)]DFI[AEEA]-NH2 (SMILES CC[C@H](C)[C@H](NC(=O)[C@H](Cc1ccccc1)NC(=O)[C@H](CC(=O)O)NC(=O)[C@H](CCCNC(=N)CF)NC(=O)[C@H](CC(=O)O)NC(=O)[C@H](Cc1ccccc1)NC(=O)[C@H](CCCCN)NC(C)=O)C(=O)NCCOCCOCC(N)=O) [0837-13FA] | 43 |
